Item-by-item account of TGI
# Test system: M14 melanoma
# test.details: NCI tumour cell line growth inhibition, 48 h

Example entries begin here.
O=C1CCC2(CCO1)OCCO2 : > 100 µM
O=Cc1ccccc1OCCOc1cc(OCCOc2ccccc2C=O)c(OCCOc2ccccc2C=O)cc1OCCOc1ccccc1C=O : > 100 µM
CC[N+](C)(CC)CCC(O)(c1ccccc1)c1ccccc1 : > 100 µM
CC[C@@]1(O)C[C@H](OC2CC(N(C)C)C(OC3CC(O)C(OC4CCC(=O)C(C)O4)C(C)O3)C(C)O2)c2c(cc3c(c2O)C(=O)c2c(O)cccc2C3=O)[C@H]1C(=O)OC (stereo not given in full) : 0.149 µM

Fill in: TGI of CCc1c(Cc2cccc3ccccc23)n2c(nc1=O)SCC2OCCO (stereo not given) is ___ > 100 µM

* * *

# System: SF-539 CNS
# test.details: NCI tumour cell line growth inhibition, 48 h
Item-by-item account of TGI

C=C(CCC(C)C1CCC2C3=C(C(=O)CC21C)C1(C)CCC(=O)[C@@H](C)C1CC3=O)C(C)C(=O)O (stereo not given in full) : > 100 µM
O=CC(O)C(O)C(O)C(O)C(=O)NCCCCCCCCCCCCNC(=O)C(O)C(O)C(O)C(O)C=O (stereo not given) : > 100 µM
C=C(CCCCCCCCC)CC(=O)SCCNC(=O)CCNC(=O)C(O)C(C)(C)COP(=O)(O)OP(=O)(O)OCC1OC(n2cnc3c(N)ncnc32)C(O)C1OP(=O)(O)O (stereo not given) : > 85.6 µM
C1C[OH+]CC[OH+]CCNCC[OH+]CC[OH+]CCN1.[Cl-].[Pt+4] : > 100 µM

Alright, here's another compound for you.
Fill in: TGI of CCOC(=O)C1=C(C(=O)c2ccc(C)cc2)C(c2cccc([N+](=O)[O-])c2)C(C(=O)c2ccc(C)cc2)=C(C(=O)OCC)N1 is ___ 26.7 µM

* * *

# System: NCI-H460 lung
# test.details: NCI tumour cell line growth inhibition, 48 h
Item-by-item account of TGI

O=C(/C=C/c1ccccc1)CC1OC(=O)c2ccccc21 (stereo unspecified) : > 100 µM
COc1cc(/C=C\c2ccccc2)cc(OC)c1OC : 27.3 µM
O=Cc1ccccc1OCCOc1cc(OCCOc2ccccc2C=O)c(OCCOc2ccccc2C=O)cc1OCCOc1ccccc1C=O : > 100 µM
N#Cc1nc(CCCCCN2C(=O)c3ccccc3C2=O)oc1N : > 100 µM
C=CCN(/C=C1/C(=O)O[C@H](COC)[C@@]2(C)C1=C(O)C(=O)C1=C2[C@H](OC(C)=O)C[C@]2(C)C(=O)CC[C@@H]12)CC=C : > 10 µM

Alright, here's another compound for you.
Fill in: TGI of COc1cc2nc(-c3ccc4ccccc4c3)[nH]c(=O)c2cc1OC is ___ > 100 µM

* * *

# Test system: HCC-2998 colon
# test.details: NCI tumour cell line growth inhibition, 48 h; in the data active means GI50 below about 0.43 µM; inactive means the rest
Parameter call: string, one of active, inactive

Before answering, review these 4 worked examples.
CCCC(=O)Nc1cc(C(=O)N2C[C@@H]3C[C@]34C2=CC(=O)c2[nH]cc(C)c24)n(COC)c1 : inactive
COc1ccc2c(c1)C(=O)c1c-2n(CCCN=[N+]=[N-])c(=O)c2cc(N(C)C)ccc12 : inactive
CC1(C)CC[C@H](Nc2ncc(C(F)(F)F)c(-c3c[nH]c4c(P(C)(C)=O)c(C#N)ccc34)n2)CN1 : active
CCCc1c(CC)c(=N)c2ccccc2n1C : inactive

So what was the verdict on CCn1c(C(=O)N(C2CC2)C2CC2)cc2c3c(ncn3C)c(Nc3cc(C)n(C)n3)nc21 in this test? inactive

* * *

# Tested on: NCI-H522 lung
# test.details: NCI tumour cell line growth inhibition, 48 h
parameter.measured: TGI

Example entries begin here.
CC1OC2=N[C@@H]1C(=O)N[C@@H](C(C)C)C1=N[C@H](C(=O)N[C@@H](C(C)C)C3=N[C@H](C(=O)N[C@@H](C(C)C)C4=N[C@H](C(=O)N[C@H]2C(C)C)C(C)O4)C(C)O3)C(C)O1 (stereo not given in full) : > 10 µM
O=C(NCc1cccc(C(F)(F)F)c1)c1cc2sccc2nc1C(F)(F)F : > 100 µM
CCC(=O)O[C@H]1CC[C@H]2[C@@H]3CC[C@H]4CC(=O)[C@H](C)C[C@]4(C)[C@H]3CC[C@]12C : > 100 µM
Nc1nc2c(c(=O)[nH]1)NC(CO)CN2 (stereo not given) : > 100 µM

Given the entry CCO/C=C/C(C)C1(C(=O)OCC)CCCCC1=O (stereo not given) , what TGI was observed with NCI-H522 lung? > 100 µM

* * *

Item-by-item account of TGI
# System: DU-145 prostate
# test.details: NCI tumour cell line growth inhibition, 48 h

Fill in: TGI of CN(C)c1nc(N(C)C)nc(N(C)C23CC4CC(CC(C4)C2)C3)n1 is ___ > 100 µM

Fill in: TGI of O=[N+]([O-])c1c(Br)cc(Br)c2c1Nc1c(ccc(Cl)c1Cl)S2 is ___ 27.3 µM

Fill in: TGI of COc1ccc2c(c1)C(=O)c1c-2n(CCCN=[N+]=[N-])c(=O)c2cc(N(C)C)ccc12 is ___ > 100 µM

Fill in: TGI of CC1OC2=N[C@@H]1C(=O)N[C@@H](C(C)C)C1=N[C@H](C(=O)N[C@@H](C(C)C)C3=N[C@H](C(=O)N[C@@H](C(C)C)C4=N[C@H](C(=O)N[C@H]2C(C)C)C(C)O4)C(C)O3)C(C)O1 (some centres undefined) is ___ > 10 µM

Fill in: TGI of COc1cc2nc(-c3ccc4ccccc4c3)[nH]c(=O)c2cc1OC is ___ > 100 µM

Fill in: TGI of CCOC(=O)c1c(N2CCCC2)ncn(-c2ccccc2)c1=S is ___ > 100 µM

Fill in: TGI of COc1ccc2c(c1)C(N)=C(c1ccccc1)C2=O is ___ > 100 µM

Fill in: TGI of C(=C\c1cccc(/C=C/c2ccccn2)n1)/c1ccccn1 is ___ > 100 µM

Fill in: TGI of CC(C)CNCC(O)COc1ccc(C(C)(C)c2ccc(OCC(O)CNCC(C)C)cc2)cc1 (centres undefined) is ___ 7.49 µM

Fill in: TGI of CC(CN(C)C)Nc1c2ccccc2nc2cccc([N+](=O)[O-])c12 (centres undefined) is ___ 11.9 µM

* * *

Item-by-item account of TGI
# Test system: CCRF-CEM leukemia
# test.details: NCI tumour cell line growth inhibition, 48 h

Fill in: TGI of O=C1C(c2c[nH]c3ccccc23)=C(c2c[nH]c3ccccc23)C(=O)N1O is ___ > 25 µM

Fill in: TGI of Cc1cc(/C=C\c2ccc3ccccc3[n+]2C)c(O)c2ncccc12 is ___ > 100 µM

Fill in: TGI of CC[N+](C)(CC)CCC(O)(c1ccccc1)c1ccccc1 is ___ > 100 µM

Fill in: TGI of CCCCCCCNc1nc(C(=O)OCC)ncc1-c1ccc(C(F)(F)F)cc1 is ___ > 100 µM

Fill in: TGI of O=C(c1ccc(Cl)cc1)c1ccc(OCCCCCCCCCCOc2ccc(C(=O)c3ccc(Cl)cc3)cc2)cc1 is ___ > 100 µM

* * *

# Tested on: MOLT-4 leukemia
# test.details: NCI tumour cell line growth inhibition, 48 h; in the data active = GI50 below about 0.43 µM; inactive = the rest
Parameter call: string, one of label 1 = active, label 0 = inactive

COc1cc(CCN)c2c(c1OC)SSSSS2 : label 1
C=C1SC(=Nc2c(C)cc(C)cc2C)N(C(=O)c2sc3ccccc3c2Cl)C12CCCCC2 : label 0
Oc1ccc(C(c2ccc(O)cc2)c2ccc(Cl)cn2)cc1 : label 0
O=Nc1c(-c2c(O)[nH]c3ccc([N+](=O)[O-])cc23)[nH]c2ccc(O)cc12 : label 1
CCc1n(Cc2ccc3ccccc3n2)cc[n+]1Cc1ccc2ccccc2n1 : label 0
C[C@H](NC(=O)[C@@H]1CSSC[C@@H](NC(=O)c2nc3ccccc3cc2O)C(=O)NCC(=O)N1C)c1ccccc1 : label 0
COc1cc2c(c(OC)c1OC)-c1ccc(N)c(=O)cc1[C@@H](NC(C)=O)CC2 : label 1

Let's switch to this molecule now.
So what was the verdict on COc1ccc(Nc2ncc(Br)c(NCCCNC(=O)C3CCC3)n2)cc1 in this test? label 0

* * *

# Tested on: CCRF-CEM leukemia
# test.details: NCI tumour cell line growth inhibition, 48 h
parameter.measured: TGI

Example entries begin here.
CC1(C)CC[C@H](Nc2ncc(C(F)(F)F)c(-c3c[nH]c4c(P(C)(C)=O)c(C#N)ccc34)n2)CN1 : > 32 µM
CC1(C)OCC(C(O)C2OC(C)(C)OC2C=O)O1 (configuration not stated) : > 100 µM
CCOC(=O)C(NC(=O)N(C1=NCC(C)S1)C1CCCCC1)(OC)C(F)(F)F (configuration not stated) : > 100 µM

Fill in: TGI of Cc1ccc(C(C)(C)C[P+](C)(c2ccccc2)c2ccccc2)cc1 is ___ > 79.3 µM

Fill in: TGI of Cc1cc(=O)n2nc(SCc3ccccc3)sc2n1 is ___ > 100 µM

Fill in: TGI of O=C1C=CC(=O)C(CNc2ccc(C(=O)OC34CC5CC(CC(C5)C3)C4)cc2)=C1 is ___ > 20.4 µM

Fill in: TGI of COc1ccc(N(C)C(=O)N(C)c2ccc([N+](=O)[O-])cc2)cc1 is ___ > 100 µM

Fill in: TGI of O=[N+]([O-])c1c(Br)cc(Br)c2c1Nc1c(ccc(Cl)c1Cl)S2 is ___ 7.49 µM

Fill in: TGI of CCCn1c(SC)nc(COC(=O)NC)c1COC(=O)NC is ___ > 100 µM

Fill in: TGI of CC1OC(OCC2OC(Oc3c(-c4ccc(O)cc4)oc4cc(O)cc(O)c4c3=O)C(OC3OC(C)C(O)C(O)C3O)C(O)C2O)C(O)C(O)C1O (configuration not stated) is ___ > 83.5 µM

Fill in: TGI of CCOC(=O)C(=[N+]=[N-])C(=O)Nc1nn2nnnc2c2ccccc12 is ___ > 100 µM

Fill in: TGI of C=CCN(/C=C1/C(=O)O[C@H](COC)[C@@]2(C)C1=C(O)C(=O)C1=C2[C@H](OC(C)=O)C[C@]2(C)C(=O)CC[C@@H]12)CC=C is ___ > 6.51 µM
